Parameter growth: see the listing below.
test system: HCT-116 colon; experiment: NCI-60 one-dose screen, 48 h (100 = growth as untreated, 0 = no growth, -100 = all killed); conditions: 10 µM unless noted
About 83,000 compounds went through this panel and 20% of them were active in at least one assay; those are over-represented in the sample as a whole.
observable: growth (%)

[[record]]
molecule = "CCN(CC)CCCCCCNc1cc(OC)c(Cl)c2cccnc12"
observable = "growth"
unit_of_measurement = "%"
val = 70.8

[[record]]
molecule = "CCN(CC)c1nc(SCC(=O)Nc2nc3ccc(C)cc3s2)nc(-c2ccccc2)c1C#N"
observable = "growth"
unit_of_measurement = "%"
val = 83

[[record]]
molecule = "COc1cc(N2C(=O)c3nccnc3C2=O)cc(OC)c1OC"
observable = "growth"
unit_of_measurement = "%"
val = 103

[[record]]
molecule = "O=C(NCCCNc1cc(-c2cn(-c3ccccc3)nc2-c2cccc(O)c2)ccn1)c1ccccc1"
observable = "growth"
unit_of_measurement = "%"
val = 24.8

[[record]]
molecule = "CC(C)(C)OC(=O)Nc1ccc2c(c1)C(NC(=O)Nc1cccc(C#N)c1)CC(C)(C)O2 (centres undefined)"
observable = "growth"
unit_of_measurement = "%"
val = 30.7

[[record]]
molecule = "C=CCSc1nc2ccccc2cc1/C=N/O"
observable = "growth"
unit_of_measurement = "%"
val = 78.8

[[record]]
molecule = "COc1cc(/C=C/C(=O)c2c(C)nc3ccccc3c2C)ccc1OCCCN1CCN(C(=O)c2ccco2)CC1"
observable = "growth"
unit_of_measurement = "%"
val = 76.6

[[record]]
molecule = "COc1cc(N=Nc2cc(Cc3ccc(N(C)C)cc3)c(N)cc2N(C)C)c2ncccc2c1"
observable = "growth"
unit_of_measurement = "%"
val = -23.7

[[record]]
molecule = "N/C(=N/N=C/c1ccccc1)N/N=C\\c1ccccc1"
observable = "growth"
unit_of_measurement = "%"
val = 35.9

[[record]]
molecule = "CC1CC(C(C)(C)C)C(=O)C(C(C)(C)C)C1 (centres undefined)"
observable = "growth"
unit_of_measurement = "%"
val = 108

[[record]]
molecule = "COC(=O)[C@]12CC[C@@H](C)[C@H](C)[C@@H]1C1=CC[C@@H]3[C@@]4(C)C(C=O)=C[C@@](C)(COS(C)(=O)=O)C4[C@H](O)C[C@@]3(C)[C@]1(C)CC2 (some centres undefined)"
observable = "growth"
unit_of_measurement = "%"
val = -85.3

[[record]]
molecule = "COC(=O)[C@]12CC[C@@H](C)[C@H](C)[C@@H]1C1=CC[C@@H]3[C@@]4(C)C(C=O)=C[C@@](C)(COC(=O)c5ccco5)C4=CC[C@@]3(C)[C@]1(C)CC2"
observable = "growth"
unit_of_measurement = "%"
val = -71.3

[[record]]
molecule = "COc1ccccc1NC(=O)N/C(N)=N/c1nc2ccccc2s1"
observable = "growth"
unit_of_measurement = "%"
val = 13.4

[[record]]
molecule = "COc1cccc(-c2nn(-c3ccccc3)cc2-c2ccnc(NCCNC(=O)Nc3cccc(C(F)(F)F)c3)c2)c1"
observable = "growth"
unit_of_measurement = "%"
val = 10.5

[[record]]
molecule = "O=C(/C=C/c1c(Cl)nc2sccn12)c1ccc(F)c(F)c1"
observable = "growth"
unit_of_measurement = "%"
val = 69.5

[[record]]
molecule = "O=C(Nc1cccc2c(O)c(N=Nc3ccc(S(=O)(=O)Nc4nccs4)cc3)cc(N=Nc3ccc(S(=O)(=O)Nc4nccs4)cc3)c12)C(Cl)Cl"
observable = "growth"
unit_of_measurement = "%"
val = 71.8

[[record]]
molecule = "CN(C)CC1C(=O)O[C@H]2[C@H]1CC/C(COC(=O)c1cc3ccccc3[nH]1)=C\\CC[C@@]1(C)O[C@@H]21 (some centres undefined)"
observable = "growth"
unit_of_measurement = "%"
val = -83.3

[[record]]
molecule = "Nc1n[nH]c(-c2cc(Cl)ccc2O)c1-c1ccccc1"
observable = "growth"
unit_of_measurement = "%"
val = 85.1

[[record]]
molecule = "N#CC1=C(c2ccc(Br)cc2)NC(SCC(=O)c2ccc(Br)cc2)NC1=O (centres undefined)"
observable = "growth"
unit_of_measurement = "%"
val = 96.5


These measurements were taken from PubChem BioAssay (NCI).
